Hello, the source for this data is paper PMC6534296, in case you need it.

TARGET OF ASSAY: Cytochrome P450 BM3 (CYP102A1) mutant M11 (Priestia megaterium, UniProt P14779, E144G/E268V/E65G/F82I/F88V/G416S/H286Y/L189Q/R48L/Y199C)
Construct: heme domain (stop codon introduced after residue 473)
Sequence (P14779 1-474 R48L/E65G/F82I/F88V/E144G/L189Q/Y199C/E268V/H286Y/G416S): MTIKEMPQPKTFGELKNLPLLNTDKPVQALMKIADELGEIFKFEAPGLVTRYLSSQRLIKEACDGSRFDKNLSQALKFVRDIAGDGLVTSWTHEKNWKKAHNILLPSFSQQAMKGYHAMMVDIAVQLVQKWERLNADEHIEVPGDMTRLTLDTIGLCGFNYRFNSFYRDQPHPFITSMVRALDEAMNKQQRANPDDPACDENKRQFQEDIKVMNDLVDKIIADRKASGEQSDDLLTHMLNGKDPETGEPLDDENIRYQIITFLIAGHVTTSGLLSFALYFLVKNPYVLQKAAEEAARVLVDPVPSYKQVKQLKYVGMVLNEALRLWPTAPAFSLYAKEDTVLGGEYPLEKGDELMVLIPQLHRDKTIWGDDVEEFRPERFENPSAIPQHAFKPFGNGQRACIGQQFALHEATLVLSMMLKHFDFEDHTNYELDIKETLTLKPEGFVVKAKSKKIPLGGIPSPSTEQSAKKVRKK
METHOD: X-ray crystal structure ([…] Å) and UV/Vis difference spectral titration
pKd: −log10 of the molar value.

COMPOUND: O[C@@H](CS)[C@@H](O)CS (racemic) [DTT, dithiothreitol]
pKd: 4.25
